Experiment: Cytotoxicity against human Raji cells assessed as cell viability at 100 molar ratio after 48 hrs by trypan blue staining method
Assay type: cell-based
Details: read-out: Activity

INPUT_SMILES	viability at 48 h, 100 molar ratio, %
CCCCCC(=O)OCC(COC(=O)CCCCC)O[C@@H]1O[C@H](CO)[C@@H](O)[C@H](O)[C@H]1O	80
CCCCCC(=O)OCCO[C@@H]1O[C@H](CO)[C@H](O)[C@H](O)[C@H]1O	80
CCCCCCCCCCCCCCCCCC(=O)OCC(COC(=O)CCCCCCCCCCCCCCCCC)O[C@@H]1O[C@H](CS(=O)(=O)[O-])[C@@H](O)[C@H](O)[C@H]1O.[Na+]	80
CCCCCCCCCCCC(=O)OCC(COC(=O)CCCCCCCCCCC)O[C@@H]1O[C@H](CS(=O)(=O)[O-])[C@@H](O)[C@H](O)[C@H]1O.[Na+]	80
CCCCCCCCCCCCCCCCCC(=O)OCC(COC(=O)CCCCCCCCCCCCCCCCC)O[C@@H]1O[C@H](CO)[C@@H](O)[C@H](O)[C@H]1O	80
CCCCCC(=O)OC[C@H](CO)O[C@@H]1O[C@H](COC(=O)CCCCC)[C@@H](O)[C@H](O)[C@H]1O	80
CCCCCC(=O)OCC(COC(=O)CCCCC)O[C@@H]1O[C@H](CS(=O)(=O)[O-])[C@@H](O)[C@H](O)[C@H]1O.[Na+]	80
CCCCCCCCCCCC(=O)OCC(COC(=O)CCCCCCCCCCC)O[C@@H]1O[C@H](CO)[C@@H](O)[C@H](O)[C@H]1O	80
